System: S. aureus VISA/HIP5827
Test: MIC, broth microdilution, vancomycin-intermediate S. aureus VISA HIP5827
Assay type: cell-based, Staphylococcus aureus
Conditions: Staphylococcus aureus VISA/HIP5827; read-out: MIC
Entries annotated with measured MIC
Could you give me the number in µM? Just the number is fine.

Worked examples follow.
{"columns": ["Molecule", "Unit of measure", "MIC"],
 "data": [
  ["CNC(CC(C)C)C(=O)NC1C(=O)NC(CC(N)=O)C(=O)NC2C(=O)NC3C(=O)NC(C(=O)NC(C(=O)NCCCNC(=O)c4ccc5cc(NS(=O)(=O)c6ccccc6)ccc5c4)c4cc(O)cc(O)c4-c4cc3ccc4O)C(O)c3ccc(c(Cl)c3)Oc3cc2cc(c3OC2OC(CO)C(O)C(O)C2OC2CC(C)(N)C(O)C(C)O2)Oc2ccc(cc2Cl)C1O (stereo not drawn)", "µM", 0.78],
  ["CNC(CC(C)C)C(=O)NC1C(=O)NC(CC(N)=O)C(=O)NC2C(=O)NC3C(=O)NC(C(=O)NC(C(=O)NCCCNC(=O)c4ccc(-c5ccc(F)cc5)cc4)c4cc(O)cc(O)c4-c4cc3ccc4O)C(O)c3ccc(c(Cl)c3)Oc3cc2cc(c3OC2OC(CO)C(O)C(O)C2OC2CC(C)(N)C(O)C(C)O2)Oc2ccc(cc2Cl)C1O (stereo not drawn)", "µM", 0.10]
]}

Now examine the next entry.
Request: Let me know recorded MIC for CNC(CC(C)C)C(=O)NC1C(=O)NC(CC(N)=O)C(=O)NC2C(=O)NC3C(=O)NC(C(=O)NC(C(=O)NCCCNC(=O)c4ccc5cc(NS(=O)(=O)c6ccc(C(C)C)cc6)ccc5c4)c4cc(O)cc(O)c4-c4cc3ccc4O)C(O)c3ccc(c(Cl)c3)Oc3cc2cc(c3OC2OC(CO)C(O)C(O)C2OC2CC(C)(N)C(O)C(C)O2)Oc2ccc(cc2Cl)C1O (stereo not drawn) , thanks.
Response: 0.78

* * *

Test system: S. aureus VRSA
Assay: MIC, broth microdilution, vancomycin-resistant S. aureus (VRSA)
Format: cell-based, Staphylococcus aureus
Conditions: VRSA; ratio of MIC of vancomycin and MIC of analogue
Entries annotated with measured MIC-fold improvement vs. vancomycin
Note: the reply should be a number with no unit written.

Worked examples follow.
{"columns": ["Molecule", "MIC-fold improvement vs. vancomycin"],
 "data": [
  ["CN[C@H](CC(C)C)C(=O)N[C@H]1C(=O)N[C@@H](CC(N)=O)C(=O)N[C@H]2C(=O)N[C@H]3C(=O)N[C@H](C(=O)N[C@H](C(=O)NCC(=O)Nc4cc(C)cc(C)c4)c4cc(O)cc(O)c4-c4cc3ccc4O)[C@H](O)c3ccc(c(Cl)c3)Oc3cc2cc(c3O[C@@H]2O[C@H](CO)[C@@H](O)[C@H](O)[C@H]2O[C@H]2C[C@](C)(N)[C@H](O)[C@H](C)O2)Oc2ccc(cc2Cl)[C@H]1O", 8],
  ["CNC(CC(C)C)C(=O)NC1C(=O)NC(CC(N)=O)C(=O)NC2C(=O)NC3C(=O)NC(C(=O)NC(C(=O)NCCCNC(=O)c4ccc(-c5ccc(-c6ccccc6)cc5)cc4)c4cc(O)cc(O)c4-c4cc3ccc4O)C(O)c3ccc(c(Cl)c3)Oc3cc2cc(c3OC2OC(CO)C(O)C(O)C2OC2CC(C)(N)C(O)C(C)O2)Oc2ccc(cc2Cl)C1O (stereo not drawn)", 64],
  ["CNC(CC(C)C)C(=O)NC1C(=O)NC(CC(N)=O)C(=O)NC2C(=O)NC3C(=O)NC(C(=O)NC(C(=O)NCC(=O)Nc4ccc(-c5cn(-c6ccc(C)cc6)nn5)cc4)c4cc(O)cc(O)c4-c4cc3ccc4O)C(O)c3ccc(c(Cl)c3)Oc3cc2cc(c3OC2OC(CO)C(O)C(O)C2OC2CC(C)(N)C(O)C(C)O2)Oc2ccc(cc2Cl)C1O (stereo not drawn)", 128],
  ["CCc1cccc(C)c1NC(=O)CNC(=O)C1NC(=O)C2NC(=O)C(NC(=O)C3NC(=O)C(CC(N)=O)NC(=O)C(NC(=O)C(CC(C)C)NC)C(O)c4ccc(c(Cl)c4)Oc4cc3cc(c4OC3OC(CO)C(O)C(O)C3OC3CC(C)(N)C(O)C(C)O3)Oc3ccc(cc3Cl)C2O)c2ccc(O)c(c2)-c2c(O)cc(O)cc21 (stereo not drawn)", 8],
  ["CN[C@H](CC(C)C)C(=O)N[C@H]1C(=O)N[C@@H](CC(N)=O)C(=O)N[C@H]2C(=O)N[C@H]3C(=O)N[C@H](C(=O)N[C@H](C(=O)NCC(=O)Nc4ccc(N5CCOCC5)cc4)c4cc(O)cc(O)c4-c4cc3ccc4O)[C@H](O)c3ccc(c(Cl)c3)Oc3cc2cc(c3O[C@@H]2O[C@H](CO)[C@@H](O)[C@H](O)[C@H]2O[C@H]2C[C@](C)(N)[C@H](O)[C@H](C)O2)Oc2ccc(cc2Cl)[C@H]1O", 4]
]}

Request: Let me know recorded MIC-fold improvement vs. vancomycin for `CN[C@H](CC(C)C)C(=O)N[C@H]1C(=O)N[C@@H](CC(N)=O)C(=O)N[C@H]2C(=O)N[C@H]3C(=O)N[C@H](C(=O)N[C@H](C(=O)NCC(=O)Nc4ccc(OC)c(OC)c4)c4cc(O)cc(O)c4-c4cc3ccc4O)[C@H](O)c3ccc(c(Cl)c3)Oc3cc2cc(c3O[C@@H]2O[C@H](CO)[C@@H](O)[C@H](O)[C@H]2O[C@H]2C[C@](C)(N)[C@H](O)[C@H](C)O2)Oc2ccc(cc2Cl)[C@H]1O` , thanks.
Response: 8
